Target: UniProtKB P49841
Test: GSK3β kinase activity (Ser/Thr 09 peptide Z-lyte FRET assay)
Format: biochemical
Conditions: recombinant kinase, 46 μM ATP, one hour at room temperature; read-out: EC50
result_type: pEC50
By convention, pEC50 is the negative base-10 log of a molar concentration.

Prompt line: Which pEC50 reading was recorded for the molecule CN1CCC(Oc2cccc(C(=O)Nc3cc4cc(-c5cnco5)ncc4cn3)c2)CC1 [Compound 4218] ?
Response line: 5.13

* * *

Biological target: GSK3β kinase (Homo sapiens, UniProt P49841)
Sequence (P49841 whole entry): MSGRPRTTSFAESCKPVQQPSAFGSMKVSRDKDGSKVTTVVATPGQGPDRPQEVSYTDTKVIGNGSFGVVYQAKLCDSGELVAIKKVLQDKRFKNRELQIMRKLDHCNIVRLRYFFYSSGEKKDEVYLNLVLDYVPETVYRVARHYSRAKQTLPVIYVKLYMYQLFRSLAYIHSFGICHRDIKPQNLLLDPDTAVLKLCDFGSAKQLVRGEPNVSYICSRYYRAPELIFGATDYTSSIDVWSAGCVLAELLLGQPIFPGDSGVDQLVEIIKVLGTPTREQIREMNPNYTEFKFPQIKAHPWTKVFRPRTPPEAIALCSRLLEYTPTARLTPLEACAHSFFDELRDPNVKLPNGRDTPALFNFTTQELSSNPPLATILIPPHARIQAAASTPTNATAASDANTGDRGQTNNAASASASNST
Experiment: GSK3β kinase activity (Ser/Thr 09 peptide Z-lyte FRET assay)
Assay type: biochemical
Conditions: recombinant kinase, 46 μM ATP, one hour at room temperature; read-out: EC50
In this section, each of the compounds is paired with its reported pEC50.
By convention, pEC50 is the negative base-10 log of a molar concentration.

# example entries with known answers
Prompt line: Which pEC50 reading was recorded for the compound `O=C(Nc1ncc2ccc(-c3cncs3)cc2n1)[C@H]1CC[C@H](CO)CC1` ?
Response line: 6.47

Prompt line: Which pEC50 reading was recorded for the compound `Cn1cc(-c2ccc3cnc(NC(=O)C4CCN(CC5(C)COC5)CC4)nc3c2)nn1` ?
Response line: 7.16

Prompt line: Which pEC50 reading was recorded for the compound N#CC(c1cncc(-c2ccc3cnc(NC(=O)C4CC4)nc3c2)c1)N1CCC(O)CC1 (stereo not drawn) ?
Response line: 6.28

Prompt line: Which pEC50 reading was recorded for the compound `CN1CCC(Oc2ccc(C(=O)Nc3ncc4ccc(-c5cnn(C)c5)cc4n3)cc2)CC1` ?
Response line: 5.03

Prompt line: Which pEC50 reading was recorded for the compound `Cn1cc(-c2ccc3cnc(NC(=O)c4coc(C5CCNCC5)n4)cc3n2)cn1` ?
Response line: 6.78

Further cases:
Prompt line: Which pEC50 reading was recorded for the compound `Cn1cncc1-c1ccc2cnc(NC(=O)c3ccc4c(c3)CNC4)cc2n1` ?
Response line: 7.08

Prompt line: Which pEC50 reading was recorded for the compound `Cn1cc(-c2cnc3cnc(NC(=O)[C@H]4CCCN4)cc3c2)cn1` ?
Response line: 5.61

Prompt line: Which pEC50 reading was recorded for the compound `CC(F)(F)CN1CCC(C(=O)Nc2cc3cc(-c4cnco4)ncc3cn2)CC1` ?
Response line: 6.90

Prompt line: Which pEC50 reading was recorded for the compound `Cn1cc(-c2ccc3cnc(NC(=O)C4CCNCC4)cc3n2)cn1` ?
Response line: 7.00

Prompt line: Which pEC50 reading was recorded for the compound `CN(C)C1CCN(c2cc(C(=O)Nc3cc4cc(-c5cn(C)nn5)ncc4cn3)ccn2)CC1` ?
Response line: 5.76

* * *

In this section, each of the molecules is paired with its reported EC50.
Molecular target: UniProt Q13627
Test: DYRK1A kinase activity (Ser/Thr 18 peptide Z-lyte FRET assay);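 further: kinase activity read as coumarin/fluorescein emission ratio after development step, with unphosphorylated and phosphorylated peptide forms setting 0% and 100% controls, values from dose-response curves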
Conditions: recombinant DYRK1A, 30 μM ATP, one hour at room temperature
Give just the number in µM; leave the unit off.

# example entries with known answers
Prompt line: Which EC50 reading was recorded for the molecule `Cn1cc(-c2ccc3cnc(NC(=O)c4coc(C5CCNCC5)n4)cc3n2)cn1` ?
Response line: 0.067

Prompt line: Which EC50 reading was recorded for the molecule `CN(C)C1CCN(c2cc(C(=O)Nc3cc4cc(-c5cn(C)nn5)ncc4cn3)ccn2)CC1` ?
Response line: 0.056

Prompt line: Which EC50 reading was recorded for the molecule `Nc1cncc(-c2cnc3cnc(NC(=O)c4ccc(OC5CCNCC5)cc4)cc3c2)c1` ?
Response line: 0.011

Please turn your attention to the following entry.
Prompt line: Which EC50 reading was recorded for the molecule `CN1CCN(c2cc(C(=O)Nc3ncc4ccc(-c5cncs5)cc4n3)ccn2)CC1` ?
Response line: 0.004

Data provenance: patent US10703748B2
